Every entry's value here was drawn from patent US6586592B2.

Counter-ions that a name gives are not always drawn.
READOUT: melting point

>  <COMPOUND>
Cc1ccc(S(=O)(=O)c2ccc(N3CCN(C)CC3)cc2N)cc1

>  <TEST_VALUE>
148 to 151 °C

$$$$
>  <COMPOUND>
CNc1cc(N2CCCNCC2)ccc1S(=O)(=O)c1cccc(F)c1.Cl

>  <TEST_VALUE>
153 to 154 °C

$$$$
>  <COMPOUND>
CCNc1cc(N2CCNCC2)ccc1S(=O)(=O)c1ccccc1.Cl

>  <TEST_VALUE>
121 to 123 °C

$$$$
>  <COMPOUND>
Cc1ccc(S(=O)(=O)c2ccc(N3CCNCC3)cc2N)cc1

>  <TEST_VALUE>
102 to 106 °C

$$$$
>  <COMPOUND>
CN1CCN(c2ccc(S(=O)(=O)c3ccccc3)c(N)c2)CC1.Cl

>  <TEST_VALUE>
90 to 93 °C

$$$$
>  <COMPOUND>
CN1CCN(c2ccc(S(=O)(=O)c3ccc(F)cc3)c(N)c2)CC1.Cl

>  <TEST_VALUE>
85 to 89 °C

$$$$
>  <COMPOUND>
Cl.Nc1cc(N2CCCNCC2)ccc1S(=O)(=O)c1cccc(F)c1

>  <TEST_VALUE>
106 to 108 °C

$$$$
>  <COMPOUND>
CN1CCN(c2ccc(S(=O)(=O)c3cccc(F)c3)c(N)c2)CC1.Cl

>  <TEST_VALUE>
89 to 92 °C

$$$$
>  <COMPOUND>
Nc1cc(N2CCNCC2)ccc1S(=O)(=O)c1ccccc1 (as salt: salt)

>  <TEST_VALUE>
165 to 166 °C

$$$$
